Examples of binders with documented glycan array binding signal (z-score) follow.
measurement target: Neu5Ac(a2-3)Gal(b1-4)GlcNAc(b1-2)Man(a1-3)[Neu5Ac(a2-3)Gal(b1-4)GlcNAc(b1-2)Man(a1-6)]Man(b1-4)GlcNAc(b1-4)[Fuc(a1-6)]GlcNAc
test summary: glycan array binding signal (z-score within array); higher = stronger binding
measurement conditions: glycan notation: IUPAC condensed, linker removed
The full list was thinned out, with the strongest signals kept by preference.
parameter measured: glycan array binding signal (z-score)

Erv46-EDTA (Saccharomyces cerevisiae), P39727 (protein) MKFLVNVALVFMVVYISYIYAAAPEHHHHHHDYDIPTTENLYFQGAMDSVVTRPQLVVDRDRHAKLELNMDVTFPSMPCDLVNLDIMDDSGEMQLDILDAGFTMSRLNSEGRPVGDATELHVGGNGDGTAPVNNDPNYCGPCYGAKDQSQNENLAQEEKVCCQDCDAVRSAYLEAGWAFFDGKNIEQCEREGYVSKINEHLNEGCRIKGSAQINRIQGNLHFAPGKPYQNAYGHFHDTSLYDKTSNLNFNHIINHLSFGKPIQSHSKLLGNDKRHGGAVVATSPLDGRQVFPDRNTHFHQFSYFAKIVPTRYEYLDNVVIETAQFSATFHSRPLAGGRDKDHPNTLHVRGGIPGMFVFFEMSPLKVINKEQ : 0.11
Cohesin-marm-DC-ASGPR-CRD (protein) LDITSHHHHHHDDLDAVRIKVDTVNAKPGDTVRIPVRFSGIPSKGIANCDFVYSYDPNVLEIIEIEPGDIIVDPNPDKSFDTAVYPDRKIIVFLFAEDSGTGAYAITKDGVFATIVAKVKEGAPNGLSVIKFVEVGGFANNDLVEQKTQFFDGGVNVGDTTEPATPTTPVTTPTTTDDLDAASCPINWVEHQGSCYWFSRSGKTWPEAERYCQLENTHLVVINSREEQNFVQAHLGSAYTWMGLSDPEGVWKWVDGTDYSSGFQNWKPGQPDDWQGHGLGGGEDCAHFHPDGRWNDDVCQRSYHWVCEAGLTQASQDSH : -0.449
